# System: human T-type calcium channel
# TEST_PROTOCOL: Whole-cell patch clamp measurement of T-type calcium channel inhibition (barium T-current)
# Type: cell-based
# MEASUREMENT_PARAMETERS: IC50 as percentage of the IC50 of 6-prenylnaringenin; measured as in Example 1
# Experimental: Using a human kidney cell-derived cell line, an EK293 cell, in which a human T-type calcium channel was forcibly expressed, the inhibitory effect of 6-prenylnaringenin on the T-type calcium channel was measured by the whole cell patch clamp method. […] The inhibitory effect of the compound of the present invention on the T-type calcium channel was measured in the same manner as in Example 1, except that the compound of the present invention was used instead of 6-prenylnaringenin.
METRIC_NAME: Ratio of IC50 value to IC50 value of 6-prenylnaringenin (%)
Numbers only, in %.

Consider the reported Ratio of IC50 value to IC50 value of 6-prenylnaringenin (%) for these compounds:
- CC(C)=CCc1c(O)cc2c(c1O)C(=O)CC(c1c(O)cccc1O)O2 (centres unmarked) [Compound-42]: 72.3
- CCC(CC)CCc1c(O)cc2c(c1O)C(=O)CC(c1ccc(O)cc1)O2 (centres unmarked) [Compound-46]: 15.0
- O=C1CC(c2ccc(O)cc2)Oc2cc(O)c(CCC3CCCC3)c(O)c21 (centres unmarked) [Compound-47]: 8.1
- CCC(=CCc1c(O)cc2c(c1O)C(=O)CC(c1ccc(O)cc1)O2)CC (centres unmarked) [Compound-40]: 7.7

Consider the additional compound presented here.
May I ask what Ratio of IC50 value to IC50 value of 6-prenylnaringenin (%) has been recorded for CC(C)=CCc1ccc2c(c1O)C(=O)CC(c1ccccc1O)O2 (centres unmarked) [Compound-43] ?
26.6

# credit: patent US11479537B2
